# experimental system: KRAS G12C (Homo sapiens, UniProt P01116+P62937, G12C)
# Sequence (P01116 1-169 isoform P01116-2 G12C): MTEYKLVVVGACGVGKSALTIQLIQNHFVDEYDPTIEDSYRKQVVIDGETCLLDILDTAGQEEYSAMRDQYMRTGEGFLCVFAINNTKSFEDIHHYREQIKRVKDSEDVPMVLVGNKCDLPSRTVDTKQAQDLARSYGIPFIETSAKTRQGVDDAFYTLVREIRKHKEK
# Sequence (P62937 whole entry): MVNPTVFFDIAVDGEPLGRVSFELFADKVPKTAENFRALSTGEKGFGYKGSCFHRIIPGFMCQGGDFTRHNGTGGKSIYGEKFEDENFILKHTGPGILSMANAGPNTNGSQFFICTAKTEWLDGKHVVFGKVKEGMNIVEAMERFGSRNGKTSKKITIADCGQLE
# procedure details: Disruption of BRAF RBD interaction with Ras (FRET / MOA assay, with Cyclophilin A)
# Format: biochemical
# measurement context: KRAS G12C FRET data, IC50
pIC50: −log10 of the molar value.

compound: CCn1c(-c2cnccc2COC)c2c3cc(ccc31)-c1cc(O)cc(c1)C[C@H](NC(=O)[C@H](C(C)C)N(C)C(=O)CO)C(=O)N1CCC[C@H](N1)C(=O)OCC(C)(C)C2 [Example A43]
pIC50: 6.00 to 7.00

compound: CCn1c(-c2cccnc2[C@H](C)OC)c2c3cc(ccc31)-c1cc(O)cc(c1)C[C@H](NC(=O)[C@H](C(C)C)N(C)C(=O)[C@@H]1CC1(F)F)C(=O)N1CCC[C@H](N1)C(=O)OCC(C)(C)C2 [Example A167]
pIC50: 6.00 to 7.00

compound: CCn1c(-c2cnccc2COC)c2c3cc(ccc31)-c1cc(O)cc(c1)C[C@H](NC(=O)[C@H](C(C)C)N(C)C(=O)[C@@H]1NC[C@@H]3C[C@@H]31)C(=O)N1CCC[C@H](N1)C(=O)OCC(C)(C)C2 [Example A78]
pIC50: 6.00 to 7.00
